- Test system: DNA Pol I (Klenow fragment, exo-)
- assay: steady-state kinetics of single nucleotide insertions, incoming nucleotide analogues (dNTP/dXTP)
- Assay type: biochemical, E. coli
- conditions used: dNTP inserted opposite template base G; 37° C.
Would you please tag the item criterion met when its Km is 100 µM or above, and criterion not met when it is below?

Reference set, count: 5
Cc1cc(C2CC(O)C(COP(=O)(O)OP(=O)(O)OP(=O)(O)O)O2)c(Br)cc1Br (stereo not drawn)	criterion not met
Cc1cc(C2CC(O)C(COP(=O)(O)OP(=O)(O)OP(=O)(O)O)O2)c(F)cc1F (stereo not drawn) [dFTP, reference compound]	criterion met
Cc1cc(C2CC(O)C(COP(=O)(O)OP(=O)(O)OP(=O)(O)O)O2)c(Cl)cc1Cl (stereo not drawn)	criterion met
Cc1cn([C@H]2C[C@H](O)[C@@H](COP(=O)(O)OP(=O)(O)OP(=O)(O)O)O2)c(=O)[nH]c1=O [dTTP, reference compound]	criterion met
Cc1cc(C2CC(O)C(COP(=O)(O)OP(=O)(O)OP(=O)(O)O)O2)c(I)cc1I (stereo not drawn)	criterion not met

Test whether the molecule Cc1cccc(C2CC(O)C(COP(=O)(O)OP(=O)(O)OP(=O)(O)O)O2)c1 (stereo not drawn) records Km of 100 µM or higher.
criterion met
